biological target: NAMPT (Homo sapiens)
pIC50: −log10 of the molar value.
Is pIC50 at least 9? Then True. If not, False.

Smiles Data | Class Assignment
CC(C)C(=O)N1CCC(Oc2ccc(NC(=O)[C@H]3CCN(c4cccnc4)C3)cc2)CC1 | False
O=C(Nc1ccc(OC2CCN(C(=O)CC3CC3)CC2)cc1)[C@H]1CCN(c2cccnc2)C1 | False
O=C(Nc1ccc(OC2CCN(C(=O)[C@@H]3CCCO3)CC2)cc1)[C@H]1CCN(c2cccnc2)C1 | False
CC1(C(=O)N2CCC(c3ccc(NC(=O)C4CN(c5cccnn5)C4)cc3)CC2)CC1 | True
Cc1ncccc1N1CC(C(=O)Nc2ccc(C3CCN(C(=O)CC(C)(C)C)CC3)cc2)C1 | False
CCCC(=O)N1CCC(c2ccc(NC(=O)C3CN(c4cccnc4)C3)cc2)CC1 | True
O=C(Nc1ccc(OC2CN(C(=O)c3ccoc3)C2)cc1)C1CN(c2ccnnc2)C1 | False
O=C(Nc1ccc(OC2CCN(C(=O)c3ccc(OC(F)(F)F)cc3)CC2)cc1)C1CN(c2ccnnc2)C1 | False
O=C(Nc1ccc(OC2CCN(C(=O)c3cc(F)cc(F)c3)CC2)cc1)C1CN(c2ccnnc2)C1 | False

----------
Target: NAMPT (human, recombinant, C-terminally His-tagged) (Homo sapiens)
Sequence (P43490 whole entry): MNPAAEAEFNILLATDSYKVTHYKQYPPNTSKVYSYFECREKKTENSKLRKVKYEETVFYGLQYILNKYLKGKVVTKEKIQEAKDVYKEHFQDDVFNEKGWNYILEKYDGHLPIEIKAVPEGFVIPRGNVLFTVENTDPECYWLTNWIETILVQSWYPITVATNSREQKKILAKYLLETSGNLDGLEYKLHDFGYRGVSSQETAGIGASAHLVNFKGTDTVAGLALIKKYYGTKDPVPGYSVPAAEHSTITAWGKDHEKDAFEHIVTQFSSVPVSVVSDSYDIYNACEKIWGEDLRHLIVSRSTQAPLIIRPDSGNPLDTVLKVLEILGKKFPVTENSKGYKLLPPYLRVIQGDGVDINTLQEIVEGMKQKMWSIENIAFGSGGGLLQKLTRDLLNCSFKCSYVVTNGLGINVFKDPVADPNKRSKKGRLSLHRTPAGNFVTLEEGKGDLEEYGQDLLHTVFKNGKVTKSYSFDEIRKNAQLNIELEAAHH
Test: Time-Resolved Fluorescence Resonance Energy Transfer (TR-FRET) Binding Assay of NAMPT
Conditions: 6.8 nM NAMPT, 200 nM probe, equilibrated 3 hours, absence of substrates
Experimental: Determination of the utility of compounds having Formula (I) as binders to and inhibitors of NAMPT was performed using Time-Resolved Fluorescence Resonance Energy Transfer (TR-FRET) binding assays. Time-Resolved Fluorescence Resonance Energy Transfer (TR-FRET) Binding Assay of NAMPT […]
pIC50: −log10 of the molar value.
Is pIC50 at least 7? Then criterion met. If not, criterion not met.

Smiles Data | Class Assignment
CC[C@H](C)C(=O)N1CCC(Oc2ccc(NC(=O)C3CN(c4ccnnc4)C3)cc2)CC1 | criterion met
O=C(Nc1ccc(C2CCN(C(=O)CCN3CCCCC3)CC2)cc1)C1CN(c2cccnc2)C1 | criterion not met
O=C(Nc1ccc(C2CCN(C(=O)Cc3ccc(C(F)(F)F)cc3)CC2)cc1)C1CN(c2cccnn2)C1 | criterion met
O=C(Nc1ccc(C2CCN(C(=O)Cc3cc(F)ccc3F)CC2)cc1)C1CN(c2cccnn2)C1 | criterion met
CCC(=O)N1CCC(c2ccc(NC(=O)C3CN(c4cccnc4)C3)cc2)CC1 | criterion met

----------
molecular target: NAMPT (Homo sapiens, UniProt P43490)
Sequence (P43490 whole entry): as above
Threshold-based label: IC50 under 40 nM gives 1 (yes), IC50 not under 40 nM gives 0 (no).

Molecule | Class Assignment
Cc1ncccc1N1CC(C(=O)Nc2ccc(C3CCN(C(=O)CCN4CCCCC4)CC3)cc2)C1 [Example 190] | 0 (no)
CC1CC1C(=O)N1CC(Oc2ccc(NC(=O)C3CN(c4ccnnc4)C3)cc2)C1 (centres unmarked) [Example 257] | 0 (no)
O=C(Nc1ccc(OC2CCN(C(=O)CC(F)(F)F)CC2)cc1)[C@H]1CCN(c2cccnc2)C1 [Example 18] | 1 (yes)
CC(C)(C)CN1CCC(Oc2ccc(NC(=O)C3CN(c4cccnc4)C3)cc2)CC1 [Example 79] | 1 (yes)
Cc1cccc(C(=O)N2CCC(c3ccc(NC(=O)C4CN(c5cccnn5)C4)cc3)CC2)c1C [Example 357] | 1 (yes)
CC(C)C(=O)N1CCC(c2ccc(NC(=O)C3CN(c4ccnnc4)C3)cc2)CC1 [Example 528] | 1 (yes)
CCC(=O)N1CCC(c2ccc(NC(=O)C3CN(c4cccnc4C)C3)cc2)CC1 [Example 181] | 0 (no)
Cc1ncccc1N1CC(C(=O)Nc2ccc(C3CCN(C(=O)CC4C[C@@H]5CC[C@H]4C5)CC3)cc2)C1 (some centres unmarked) [Example 161] | 0 (no)

----------
Entries and their measured IC50 follow.
target: UniProt P43490

Compound | IC50 (nM)
O=C(Nc1ccc(OC2CCN(C(=O)c3nccs3)CC2)cc1)C1CN(c2cccnc2)C1 | 0.569
CSCC(=O)N1CCC(c2ccc(NC(=O)C3CN(c4cccnn4)C3)cc2)CC1 | 0.578
O=C(Nc1ccc(OC2CN(C(=O)c3ccc(C(F)(F)F)cc3)C2)cc1)C1CN(c2ccnnc2)C1 | 34
CC(C)(O)C(=O)N1CCC(Oc2ccc(NC(=O)C3CN(c4cccnc4)C3)cc2)CC1 | 0.693
Cc1ncccc1N1CC(C(=O)Nc2ccc(C3CCN(C(=O)C4CC4C)CC3)cc2)C1 (stereo not shown) | 83.1
O=C(Nc1ccc(OC2CCN(C(=O)c3cccs3)CC2)cc1)C1CN(c2cccnn2)C1 | 0.6
CCC(C)(C)C(=O)N1CCC(c2ccc(NC(=O)C3CN(c4cccnc4)C3)cc2)CC1 | 0.626
CC(C)(C)OC(=O)N1CCC(c2ccc(C(=O)NC3CN(c4cccnn4)C3)cc2)CC1 | 0.572
Cc1ncccc1N1CC(C(=O)Nc2ccc(C3CCN(C(=O)c4ccccc4)CC3)cc2)C1 | 54.3
CC(C)CCN1CCC(c2ccc(NC(=O)C3CN(c4cccnc4)C3)cc2)CC1 | 1.25
CC(=O)N1CCC(Oc2ccc(NC(=O)C3CN(c4ccnnc4)C3)cc2)CC1 | 90
O=C(Nc1ccc(OC2CCN(C(=O)c3cscn3)CC2)cc1)C1CN(c2ccnnc2)C1 | 52.4
O=C(Nc1ccc(OC2CCN(C(=O)CC(F)(F)F)CC2)cc1)C1CN(c2cccnc2)C1 | 2.22
Cc1cc(C)cc(CC(=O)N2CCC(c3ccc(NC(=O)C4CN(c5cccnn5)C4)cc3)CC2)c1 | 0.633
O=C(Nc1ccc(OC2CCN(C(=O)CC(F)(F)F)CC2)cc1)C1CN(c2ccnnc2)C1 | 42.1
CC(C)C(=O)N1CCC(c2ccc(NC(=O)C3CN(c4cccnn4)C3)cc2)CC1 | 1.47

----------
target: NAMPT (human, recombinant, C-terminally His-tagged) (Homo sapiens); test: Time-Resolved Fluorescence Resonance Energy Transfer (TR-FRET) Binding Assay of NAMPT; conditions: 6.8 nM NAMPT, 200 nM probe, equilibrated 3 hours, absence of substrates
Threshold-based label: IC50 under 0.09 µM gives yes (1), IC50 not under 0.09 µM gives no (0).

Smiles Data | Class Assignment
O=C(Nc1ccc(OC2CCN(C(=O)CC3CC3)CC2)cc1)[C@H]1CCN(c2cccnc2)C1 | no (0)
CC(C)C(=O)N1CCC(Oc2ccc(NC(=O)C3CN(c4cccnc4)C3)cc2)CC1 | no (0)
COCCOCC(=O)N1CCC(Oc2ccc(NC(=O)C3CN(c4cccnc4)C3)cc2)CC1 | no (0)
O=C(Nc1ccc(OC2CCN(C(=O)c3ccsc3)CC2)cc1)C1CN(c2ccnnc2)C1 | yes (1)
O=C(Nc1ccc(OC2CCN(C(=O)CC(F)(F)F)CC2)cc1)[C@H]1CCN(c2cccnc2)C1 | no (0)
O=C(Nc1ccc(C2CCN(C(=O)CN3CCOCC3)CC2)cc1)C1CN(c2cccnc2)C1 | yes (1)
O=C(Nc1ccc(OC2CCN(C(=O)c3nccs3)CC2)cc1)C1CN(c2cccnc2)C1 | yes (1)
CC(C)(C(=O)N1CCC(Oc2ccc(NC(=O)C3CN(c4cccnn4)C3)cc2)CC1)c1ccccc1 | yes (1)

----------
target: NAMPT (Homo sapiens, UniProt P43490)
pIC50: −log10 of the molar value.
Entries and their measured pIC50 follow.
Experimental Readout: pIC50

Compound | Meas Value
CC1CC1C(=O)N1CCC(Oc2ccc(NC(=O)C3CN(c4cccnc4)C3)cc2)CC1 (centres unmarked) | 9.06
CCC(CC)CN1CCC(c2ccc(NC(=O)C3CN(c4cccnc4)C3)cc2)CC1 | 9.26
Cc1cccc(C(=O)N2CCC(c3ccc(NC(=O)C4CN(c5cccnn5)C4)cc3)CC2)c1 | 9.14
O=C(Nc1ccc(C2CCN(C(=O)CC3CCOCC3)CC2)cc1)C1CN(c2ccnnc2)C1 | 7.24
Cc1cnc(C(=O)N2CCC(c3ccc(NC(=O)C4CN(c5cccnn5)C4)cc3)CC2)cn1 | 9.20
Cc1ccc(C(=O)N2CCC(c3ccc(NC(=O)C4CN(c5cccnc5C)C4)cc3)CC2)s1 | 6.93
O=C(Nc1ccc(C2CCN(C(=O)c3ccccc3O)CC2)cc1)C1CN(c2cccnn2)C1 | 9.16
O=C(Nc1ccc(OC2CCN(CC3CC3)CC2)cc1)C1CN(c2cccnc2)C1 | 9.18

----------
target: NAMPT (human, recombinant, C-terminally His-tagged) (Homo sapiens); test: Time-Resolved Fluorescence Resonance Energy Transfer (TR-FRET) Binding Assay of NAMPT; details: 6.8 nM NAMPT, 200 nM probe, equilibrated 3 hours, absence of substrates
pIC50: −log10 of the molar value.
Experimental Readout: pIC50

Compound | Meas Value
O=C(Nc1ccc(OC2CCN(C(=O)C3CCCCC3)CC2)cc1)C1CN(c2cccnc2)C1 [Example 49] | 7.18
Cc1ncccc1N1CC(C(=O)Nc2ccc(C3CCN(C(=O)[C@@H]4CCC(=O)N4)CC3)cc2)C1 [Example 174] | 5.68
Cc1ncccc1N1CC(C(=O)Nc2ccc(C3CCN(C(=O)[C@H]4CCC(=O)N4)CC3)cc2)C1 [Example 167] | 5.43
O=C(Nc1ccc(OC2CCN(C(=O)Cc3cccc(F)c3)CC2)cc1)C1CN(c2cccnn2)C1 [Example 227] | 7.18
CSCCC(=O)N1CCC(c2ccc(NC(=O)C3CN(c4cccnn4)C3)cc2)CC1 [Example 337] | 7.30
O=C(Nc1ccc(C2CCN(C(=O)c3nccs3)CC2)cc1)C1CN(c2cccnc2)C1 [Example 108] | 8.48
Cc1ncccc1N1CC(C(=O)Nc2ccc(C3CCN(C(=O)CN4CCOCC4)CC3)cc2)C1 [Example 164] | 6.01
CCCC(C)CN1CCC(c2ccc(NC(=O)C3CN(c4cccnc4)C3)cc2)CC1 (stereo not shown) [Example 90] | 5.85
CC(C)(C(=O)N1CCC(Oc2ccc(NC(=O)C3CN(c4ccnnc4)C3)cc2)CC1)c1ccccc1 [Example 281] | 7.69
Cc1ncccc1N1CC(C(=O)Nc2ccc(C3CCN(C(=O)c4ccccc4Cl)CC3)cc2)C1 [Example 151] | 7.76
Cc1ccc(C(=O)N2CCC(c3ccc(NC(=O)C4CN(c5cccnn5)C4)cc3)CC2)c(C)c1 [Example 358] | 7.80
CCCCC(=O)N1CCC(Oc2ccc(NC(=O)C3CN(c4cccnc4)C3)cc2)CC1 [Example 34] | 7.15
O=C(Nc1ccc(OC2CCN(C(=O)CCC(F)(F)F)CC2)cc1)C1CN(c2cccnc2)C1 [Example 51] | 6.96
O=C(Nc1ccc(OC2CCN(C(=O)c3ccsc3)CC2)cc1)C1CN(c2cccnc2)C1 [Example 58] | 7.23
O=C(Nc1ccc(C2CCN(C(=O)C3CCCCC3)CC2)cc1)C1CN(c2cccnn2)C1 [Example 339] | 7.75
O=C(Nc1ccc(OC2CN(C(=O)CC3CCOCC3)C2)cc1)C1CN(c2ccnnc2)C1 [Example 256] | 7.04
